Just for reference, paper PMC12035931 is where these values come from.

tested on: TNF-α-induced NF-κB activity; assay: Inhibition of TNF-α-activated NF-κB, luciferase reporter assay in HEK293 cells; assay type: cell-based, human; settings: Homo sapiens; TNF-α-induced NF-κB luciferase, HEK293; read-out: NF-κB assay IC50
pIC50: −log10 of the molar value.
Quick rule for you: pIC50 at 6 or higher means T, lower means F.

1) CC(=O)OC1C[C@H](OC(C)=O)CC2=CCC3C4CCC([C@@](C)(O)[C@@H](C[C@@H]5COC(=O)[C@@]5(C)O)OC(C)=O)[C@@]4(C)CCC3[C@]21C (stereo partly shown) [Compound 6a] = F
2) CC1=C(C)C(=O)OC([C@](C)(O)[C@]2(O)CC[C@@]3(O)C4C[C@@H](O)C5=CC=CC(=O)[C@]5(C)C4CC[C@]23C)C1 (stereo partly shown) [Compound 5, withaperuvin C] = F
3) CC(=O)O[C@H]1C=CC(=O)[C@]2(C)C3CC[C@]4(C)[C@](O)([C@@](C)(O)C5CC(C)=C(C)C(=O)O5)CC[C@@]4(O)C3C[C@H]3O[C@]132 (stereo partly shown) [Compound 3a] = T
4) CC(=O)O[C@@H]1CC2C(CC[C@]3(C)[C@](O)([C@@](C)(O)C4CC(C)=C(C)C(=O)O4)CC[C@@]23O)[C@@]2(C)C(=O)C=CC=C12 (stereo partly shown) [Compound 5a, withaperuvin C acetate] = F
5) CC1=C(C)C(=O)OC(C(C)(O)C2(O)CCC3(O)C4CC(Cl)C5(O)C(O)C=CC(=O)C5(C)C4CCC32C)C1 (stereo not shown) [Compound 2] = T
6) CC1=C(C)C(=O)OC(C(C)(O)C2(O)CCC3(O)C4CC(O)C5(O)C(O)C(O)CC(=O)C5(C)C4CCC32C)C1 (stereo not shown) [Compound 1] = T
